- experimental-system: hA2B AR (Homo sapiens, UniProt P29275)
- Construct: expressed in transfected cells; host or cells: CHO cells
- Sequence (P29275 1-332): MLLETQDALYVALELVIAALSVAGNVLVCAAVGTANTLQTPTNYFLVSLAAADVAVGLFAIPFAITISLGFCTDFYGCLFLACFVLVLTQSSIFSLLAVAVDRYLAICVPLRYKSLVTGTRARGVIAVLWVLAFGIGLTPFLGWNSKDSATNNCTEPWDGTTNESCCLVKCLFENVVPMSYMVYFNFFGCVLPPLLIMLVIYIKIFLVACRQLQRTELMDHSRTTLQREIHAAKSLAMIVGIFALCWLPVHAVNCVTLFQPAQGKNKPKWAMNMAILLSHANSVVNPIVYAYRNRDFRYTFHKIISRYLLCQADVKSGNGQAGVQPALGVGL
- measurement-notes: cAMP assay in hA2B CHO cells stimulated by 200 nM NECA
- Format: cell-based
- condition-description: read-out: cAMP assays I% hA2B
assay-endpoint: inhibition at 1 µM (%)

- molecule: "Nc1nc(N2CCN(C(=O)Cc3ccccc3)CC2)nc2cn(-c3ccccc3)nc12 [Compound 24]"
  assay-endpoint: "inhibition at 1 µM"
  unit-spec: "%"
  measured-number: 3
- molecule: "Nc1nc(N2CCN(Cc3ccccc3)CC2)nc2cn(-c3ccccc3)nc12 [Compound 16]"
  assay-endpoint: "inhibition at 1 µM"
  unit-spec: "%"
  measured-number: 1

a = CC(C)(C)CC(=O)N1CCN(c2nc(N)c3nn(-c4ccccc4)cc3n2)CC1 [Compound 23]
b = COc1ccc(Nc2nc(N)c3nn(-c4ccccc4)cc3n2)cc1 [Compound 2]
c = Nc1nc(N2CCN(Cc3ccco3)CC2)nc2cn(-c3ccccc3)nc12 [Compound 22]
d = Nc1nc(Nc2ccc(O)cc2)nc2cn(-c3ccccc3)nc12 [Compound 4]
Rank descending by inhibition at 1 µM. Rank the items, then write their labels in that order.
c, d, a, b
(c: 16%, d: 10%, a: 2%, b: 1%)

a = Nc1nc(Nc2ccccc2)nc2cn(-c3ccccc3)nc12 [Compound 1]
b = Cn1cc2nc(Nc3ccccc3)nc(N)c2n1 [Compound 8]
c = COc1ccc(CCNc2nc(N)c3nn(-c4ccccc4)cc3n2)cc1OC [Compound 13]
Rank descending by inhibition at 1 µM. Rank the items, then write their labels in that order.
c, a, b

1 = Nc1nc(N2CCN(Cc3ccc(F)cc3Cl)CC2)nc2cn(-c3ccccc3)nc12 [Compound 19]
2 = Cn1cc2nc(NCc3ccccc3)nc(N)c2n1 [Compound 9]
Min inhibition at 1 µM? 1 | 2 Reply briefly: the label of your chosen item.
2

P = Nc1nc(N2CCN(C(=O)c3ccco3)CC2)nc2cn(-c3ccccc3)nc12 [Compound 20]
Q = CC(C)(C)OC(=O)N1CCN(c2nc(N)c3nn(-c4ccccc4)cc3n2)CC1 [Compound 21]
Which of the two items, P and Q , has the greater recorded inhibition at 1 µM? Reply briefly: the label of your chosen item.
P

* * *

- experimental-system: hA2A AR (Homo sapiens)
- Construct: expressed in transfected cells; host or cells: CHO cells (membranes)
- Sequence (P29274 whole entry): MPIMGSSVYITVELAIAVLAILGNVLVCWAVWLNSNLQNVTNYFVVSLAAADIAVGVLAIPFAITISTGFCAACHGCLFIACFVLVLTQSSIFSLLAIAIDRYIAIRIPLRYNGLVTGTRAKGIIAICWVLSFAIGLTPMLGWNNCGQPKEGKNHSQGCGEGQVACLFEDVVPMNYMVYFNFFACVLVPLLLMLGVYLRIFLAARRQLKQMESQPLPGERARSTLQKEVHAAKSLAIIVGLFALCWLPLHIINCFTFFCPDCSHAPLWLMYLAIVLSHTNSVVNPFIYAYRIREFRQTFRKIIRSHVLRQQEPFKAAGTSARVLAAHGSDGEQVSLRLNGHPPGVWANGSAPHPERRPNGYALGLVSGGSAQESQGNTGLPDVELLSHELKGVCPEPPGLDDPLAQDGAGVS
- measurement-notes: [3H]ZM241385 competition binding to hA2A CHO membranes
- condition-description: inhibition at 1 μM; [3H]ZM241385, hA2A CHO
assay-endpoint: Binding experiments I% hA2A (%)

For orientation, consider the following solved cases.
- molecule: "Nc1nc(N2CCN(c3ccccc3)CC2)nc2cn(-c3ccccc3)nc12"
  measured-number: 20
- molecule: "CC(C)(C)CC(=O)N1CCN(c2nc(N)c3nn(-c4ccccc4)cc3n2)CC1"
  measured-number: 2

A = Nc1nc(N2CCN(CCc3ccccc3)CC2)nc2cn(-c3ccccc3)nc12
B = Cn1cc2nc(NCc3ccccc3)nc(N)c2n1
C = Nc1nc(N2CCN(C(=O)c3ccco3)CC2)nc2cn(-c3ccccc3)nc12
Rank descending by Binding experiments I% hA2A. Rank the items, then write their labels in that order.
A, C, B

a = Nc1nc(Nc2ccc(O)cc2)nc2cn(-c3ccccc3)nc12
b = Nc1nc(Nc2ccc(Cl)cc2Cl)nc2cn(-c3ccccc3)nc12
c = COc1ccc(Nc2nc(N)c3nn(-c4ccccc4)cc3n2)cc1
d = Nc1nc(N2CCN(C(=O)Cc3ccccc3)CC2)nc2cn(-c3ccccc3)nc12
e = COc1ccc(CCNc2nc(N)c3nn(-c4ccccc4)cc3n2)cc1
Rank descending by Binding experiments I% hA2A. Rank the items, then write their labels in that order.
a, e, c, d, b

P = Nc1nc(N2CCN(Cc3ccco3)CC2)nc2cn(-c3ccccc3)nc12
Q = Nc1nc(NCc2ccccc2)nc2cn(Cc3ccccc3)nc12
R = Cn1cc2nc(Nc3ccccc3)nc(N)c2n1
Rank descending by Binding experiments I% hA2A. Rank the items, then write their labels in that order.
P, R, Q

A = Nc1nc(N2CCN(Cc3c(F)cc(F)cc3F)CC2)nc2cn(-c3ccccc3)nc12
B = Nc1nc(N2CCN(Cc3ccccc3)CC2)nc2cn(-c3ccccc3)nc12
Which of the two items, A and B , has the greater recorded Binding experiments I% hA2A? Reply briefly: the label of your chosen item.
A
(A: 34%, B: 1%)

* * *

- experimental-system: hA2B AR (Homo sapiens)
- Construct: expressed in transfected cells; host or cells: CHO cells
- Sequence (P29275 1-332): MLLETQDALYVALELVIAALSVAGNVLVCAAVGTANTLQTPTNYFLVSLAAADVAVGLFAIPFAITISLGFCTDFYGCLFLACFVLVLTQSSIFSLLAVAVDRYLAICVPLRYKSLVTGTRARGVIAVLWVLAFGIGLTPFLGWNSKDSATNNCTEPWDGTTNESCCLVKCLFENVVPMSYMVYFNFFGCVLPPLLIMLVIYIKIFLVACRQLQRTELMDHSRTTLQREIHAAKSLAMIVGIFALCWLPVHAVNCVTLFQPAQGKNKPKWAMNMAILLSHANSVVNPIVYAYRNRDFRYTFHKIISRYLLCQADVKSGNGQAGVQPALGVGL
- measurement-notes: cAMP assay in hA2B CHO cells stimulated by 200 nM NECA
- Assay type: cell-based
- condition-description: read-out: cAMP assays I% hA2B
assay-endpoint: inhibition at 1 µM (%)

- molecule: "Nc1nc(NCc2ccccc2)nc2cn(-c3ccccc3)nc12"
  unit-spec: "%"
  inhibition at 1 µM: 2
- molecule: "Nc1nc(NCCc2ccc(O)cc2)nc2cn(-c3ccccc3)nc12"
  unit-spec: "%"
  inhibition at 1 µM: 1
- molecule: "Nc1nc(N2CCN(c3ccccc3)CC2)nc2cn(-c3ccccc3)nc12"
  unit-spec: "%"
  inhibition at 1 µM: 1
- molecule: "Nc1nc(NCCc2ccccc2)nc2cn(-c3ccccc3)nc12"
  unit-spec: "%"
  inhibition at 1 µM: 1
- molecule: "Nc1nc(N2CCN(CCc3ccccc3)CC2)nc2cn(-c3ccccc3)nc12"
  unit-spec: "%"
  inhibition at 1 µM: 1
- molecule: "Nc1nc(NCCCc2ccccc2)nc2cn(-c3ccccc3)nc12"
  unit-spec: "%"
  inhibition at 1 µM: 1

P = Nc1nc(NCc2ccccc2)nc2cn(Cc3ccccc3)nc12
Q = Nc1nc(Nc2ccc(Cl)cc2Cl)nc2cn(-c3ccccc3)nc12
Which of the two items, P and Q , has the greater recorded inhibition at 1 µM? Reply briefly: the label of your chosen item.
Q

* * *

- experimental-system: hA2B AR (Homo sapiens, UniProt P29275)
- Construct: expressed in transfected cells; host or cells: CHO cells
- measurement-notes: cAMP assay in hA2B CHO cells stimulated by 200 nM NECA
- Format: cell-based
- condition-description: read-out: cAMP assays I% hA2B
assay-endpoint: inhibition at 1 µM (%)

- molecule: "COc1ccc(CCNc2nc(N)c3nn(-c4ccccc4)cc3n2)cc1"
  experimental-system: "hA2B AR (Homo sapiens, UniProt P29275)"
  inhibition at 1 µM / %: 1
- molecule: "Nc1nc(NCCc2ccc(O)c(O)c2)nc2cn(-c3ccccc3)nc12"
  experimental-system: "hA2B AR (Homo sapiens, UniProt P29275)"
  inhibition at 1 µM / %: 1
- molecule: "Nc1nc(N2CCN(Cc3c(F)cc(F)cc3F)CC2)nc2cn(-c3ccccc3)nc12"
  experimental-system: "hA2B AR (Homo sapiens, UniProt P29275)"
  inhibition at 1 µM / %: 1

Data origin, for the record: paper PMC6009979
